Origin of the recorded values: patent US20150086555A1

target: recombinant soluble homotrimeric HA of A/Hong Kong/2108/03 (H9N2) (Influenza A virus A/HK/2108/2003(H9N2)); assay: HA microarray, BCC supernatant; conditions: remark: other sources report otherwise
Quick list: log10(Trimeric HA Binding: RLU) per entry.
// do not treat as linear: log10 of Trimeric HA Binding: RLU, unit RLU

Challenge: Request the reported log10(Trimeric HA Binding: RLU) associated with TCN-546 (5089_L08) (antibody, V domains shown) VH: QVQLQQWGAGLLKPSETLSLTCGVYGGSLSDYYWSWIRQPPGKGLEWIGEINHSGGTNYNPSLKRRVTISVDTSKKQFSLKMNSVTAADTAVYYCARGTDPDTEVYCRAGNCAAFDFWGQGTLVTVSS VL: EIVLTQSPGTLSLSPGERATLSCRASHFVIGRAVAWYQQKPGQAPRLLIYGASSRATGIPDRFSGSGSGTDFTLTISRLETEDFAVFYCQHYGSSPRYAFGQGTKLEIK
Response given: 4.11

Challenge: Any idea what its log10(Trimeric HA Binding: RLU) is? The binder is TCN-535 (5246_P19) (antibody, V domains shown) VH: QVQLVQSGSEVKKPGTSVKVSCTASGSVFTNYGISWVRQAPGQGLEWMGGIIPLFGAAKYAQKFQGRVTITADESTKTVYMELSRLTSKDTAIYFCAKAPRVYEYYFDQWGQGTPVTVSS VL: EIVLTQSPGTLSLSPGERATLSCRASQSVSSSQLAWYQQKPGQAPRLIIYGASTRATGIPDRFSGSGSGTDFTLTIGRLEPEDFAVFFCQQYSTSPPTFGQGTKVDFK
Response given: 2.94

Challenge: What value of measured log10(Trimeric HA Binding: RLU) is listed for TCN-534 (5249_B02) (antibody, V domains shown) VH: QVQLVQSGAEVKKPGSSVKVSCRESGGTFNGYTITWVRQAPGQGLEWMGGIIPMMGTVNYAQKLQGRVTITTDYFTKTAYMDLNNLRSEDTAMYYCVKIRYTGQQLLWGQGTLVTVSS VL: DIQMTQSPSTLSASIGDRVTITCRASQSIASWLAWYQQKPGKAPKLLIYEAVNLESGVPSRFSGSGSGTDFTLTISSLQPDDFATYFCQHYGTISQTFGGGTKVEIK ?
Response given: 2.22

Challenge: Return reported log10(Trimeric HA Binding: RLU); argument: TCN-551 (5243_D01) (antibody, V domains shown) VH: EVQLVQSGSEVKKPGESLKISCKGSGYSFSNYWIGWVRHMPGKGLEWMGIIYPGDSDTRYSPSFQGQVTMSADKSSSTVYLQWSSLKASDTAIYYCARRGGHSFGYGSGGDTHSEFDSWGQGTLVTVSS VL: QSVLTQSPSVSAAPGQKVTISCSGSDSNIGDYFVCWYQHLPGKPPQLLIYENNKRPSGIPDRFSGSKSGTSATLGITGIQTGDEADYYCATWDGSLSAWVFGGGTKLTVL
Response given: 2.35

Challenge: Name the reported log10(Trimeric HA Binding: RLU) value associated with the binder TCN-557 (5081_A04) (antibody, V domains shown) VH: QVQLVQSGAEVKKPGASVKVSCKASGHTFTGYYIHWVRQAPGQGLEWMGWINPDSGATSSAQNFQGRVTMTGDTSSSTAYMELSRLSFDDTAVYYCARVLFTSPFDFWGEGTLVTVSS VL: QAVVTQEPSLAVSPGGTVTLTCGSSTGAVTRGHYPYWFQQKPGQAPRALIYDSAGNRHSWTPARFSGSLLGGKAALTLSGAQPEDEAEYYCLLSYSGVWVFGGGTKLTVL
Response given: 4.55
